The measured values listed here are drawn from PubChem BioAssay AID2060627.

Tested on: 156681-154-R-J1-PDC complex spheroid viability
Assay: Anticancer human tumor 156681-154-R-J1-PDC patient-derived melanoma cell line growth inhibition [CLK]
Details: curve of first compound; second compound 3.16 µM
assay_readout: IC50

Recorded IC50, per entry:
COc1cccc2c1C(=O)c1c(O)c3c(c(O)c1C2=O)CC(O)(C(=O)CO)CC3OC1CC(N)C(O)C(C)O1 (stereo not given) + CNC(=O)c1ccc(Nc2nc(OC3CCCC3)c3c(-c4ccc5nc(C)oc5c4)c[nH]c3n2)c(OC)c1 = < 31.6 nM
CCCS(=O)(=O)Nc1ccc(F)c(C(=O)c2c[nH]c3ncc(-c4ccc(Cl)cc4)cc23)c1F + CNC(=O)c1ccc(Nc2nc(OC3CCCC3)c3c(-c4ccc5nc(C)oc5c4)c[nH]c3n2)c(OC)c1 = < 31.6 nM
CCN1CCN(Cc2ccc(Nc3ncc(F)c(-c4cc(F)c5nc(C)n(C(C)C)c5c4)n3)nc2)CC1 + CN1CCN(c2cc(C(=O)Nc3cc4cc(-c5cnn(C)c5)ccc4cn3)ccn2)CC1 = < 3.16 nM

[ask] Please report the recorded IC50 for NC(=O)C(=Cn1cnc(-c2cc(C(F)(F)F)cc(C(F)(F)F)c2)n1)c1cncnc1 + CN1CCN(c2cc(C(=O)Nc3cc4cc(-c5cnn(C)c5)ccc4cn3)ccn2)CC1 .
[reply] < 9.49 nM

[ask] I am curious: what IC50 value has been reported for COC1C=CCC(C)C(C)S(=O)(=O)NC(=O)c2ccc3c(c2)N(CC2CCC21)CC1(CCCc2cc(Cl)ccc21)CO3 (stereo not given) + CNC(=O)c1ccc(Nc2nc(OC3CCCC3)c3c(-c4ccc5nc(C)oc5c4)c[nH]c3n2)c(OC)c1 ?
[reply] < 31.6 nM

[ask] GET /values?readout=IC50&item= CC(CO)NC(=O)c1cc(-c2ccc(Cl)cc2)nn(-c2cnn(C)c2)c1=O (stereo not given) + CNC(=O)c1ccc(Nc2nc(OC3CCCC3)c3c(-c4ccc5nc(C)oc5c4)c[nH]c3n2)c(OC)c1
[reply] < 31.6 nM

[ask] Need IC50, item C=CC(=O)N1CCN(c2nc(=O)n(-c3c(C)ccnc3C(C)C)c3nc(-c4c(O)cccc4F)c(F)cc23)C(C)C1 (stereo not given) + CN1CCN(c2cc(C(=O)Nc3cc4cc(-c5cnn(C)c5)ccc4cn3)ccn2)CC1
[reply] < 31.6 nM

[ask] Item under review: COc1cccc2c1C(=O)c1c(O)c3c(c(O)c1C2=O)CC(O)(C(=O)CO)CC3OC1CC(N)C(O)C(C)O1 (stereo not given) + CN1CCN(c2cc(C(=O)Nc3cc4cc(-c5cnn(C)c5)ccc4cn3)ccn2)CC1 . Reported IC50?
[reply] < 31.6 nM

[ask] Given CCN1CCN(Cc2ccc(Nc3ncc(F)c(-c4cc(F)c5nc(C)n(C(C)C)c5c4)n3)nc2)CC1 + CNC(=O)c1ccc(Nc2nc(OC3CCCC3)c3c(-c4ccc5nc(C)oc5c4)c[nH]c3n2)c(OC)c1 , state its recorded IC50.
[reply] < 3.16 nM

[ask] Using the record for C=CC(=O)Nc1cc(Nc2nccc(-c3cn(C)c4ccccc34)n2)c(OC)cc1N(C)CCN(C)C + CNC(=O)c1ccc(Nc2nc(OC3CCCC3)c3c(-c4ccc5nc(C)oc5c4)c[nH]c3n2)c(OC)c1 , report its IC50.
[reply] 2.45 nM

[ask] Any idea what its IC50 is? The molecule is COc1ccc([C@@H](O)c2cc(-c3ncnc4cc(N5CCOCC5)ccc34)c(F)cc2Cl)nn1 + CNC(=O)c1ccc(Nc2nc(OC3CCCC3)c3c(-c4ccc5nc(C)oc5c4)c[nH]c3n2)c(OC)c1
[reply] < 31.6 nM

====

System: 156681-154-R-J1-PDC complex spheroid viability
Experiment: Anticancer human tumor 156681-154-R-J1-PDC cell line growth inhibition [CLK];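 note: spheroids exposed to the agents for seven days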;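 for viability, T/C: 100% = DMSO vehicle control viability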
Conditions: second compound 3.16 µM; first compound 0.316 µM; stronger effect = lower value
Entry class follows viability, T/C: bottom range = under 1%, center range = from 1% up to 40%, top range = 40% and over

CC1COCCN1c1cc(C2(S(C)(=N)=O)CC2)nc(-c2ccnc3[nH]ccc23)n1 (stereo not given) + CN1CCN(c2cc(C(=O)Nc3cc4cc(-c5cnn(C)c5)ccc4cn3)ccn2)CC1 = bottom range
CC(CO)NC(=O)c1cc(-c2ccc(Cl)cc2)nn(-c2cnn(C)c2)c1=O (stereo not given) + CNC(=O)c1ccc(Nc2nc(OC3CCCC3)c3c(-c4ccc5nc(C)oc5c4)c[nH]c3n2)c(OC)c1 = top range
Nc1ccccc1NC(=O)c1ccc(CNC(=O)OCc2cccnc2)cc1 + CNC(=O)c1ccc(Nc2nc(OC3CCCC3)c3c(-c4ccc5nc(C)oc5c4)c[nH]c3n2)c(OC)c1 = center range

[ask] Band assignment needed for O=c1[nH]cc(F)c(=O)[nH]1 + CNC(=O)c1ccc(Nc2nc(OC3CCCC3)c3c(-c4ccc5nc(C)oc5c4)c[nH]c3n2)c(OC)c1 please.
[reply] top range

[ask] Which class holds C=C(F)C(=O)N1CCN(c2nc(OCC3CCCN3C)nc3c2CCN(c2cccc4cccc(Cl)c24)C3)CC1CC#N (stereo not given) + CN1CCN(c2cc(C(=O)Nc3cc4cc(-c5cnn(C)c5)ccc4cn3)ccn2)CC1 ?
[reply] center range

====

System: 156681-154-R-J1-PDC complex spheroid viability
Experiment: Anticancer human tumor 156681-154-R-J1-PDC cell line growth inhibition [CLK];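 note: spheroids exposed to the agents for seven days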;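 for viability, T/C: 100% = DMSO vehicle control viability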
Conditions: second compound 10 µM; first compound 0.0316 µM; stronger effect = lower value
assay_readout: viability, T/C (%)
Number only, in %; omit the unit.

CCc1c2c(nc3ccc(O)cc13)-c1cc3c(c(=O)n1C2)COC(=O)[C@]3(O)CC + CN1CCN(c2cc(C(=O)Nc3cc4cc(-c5cnn(C)c5)ccc4cn3)ccn2)CC1 = 2.3
CC(Nc1ccc2c(c1)OCCn1cc(N3C(=O)OCC3C(F)F)nc1-2)C(N)=O (stereo not drawn) + CNC(=O)c1ccc(Nc2nc(OC3CCCC3)c3c(-c4ccc5nc(C)oc5c4)c[nH]c3n2)c(OC)c1 = 33.4

Now look at this one.
[ask] Look up viability, T/C: COc1c(OCCCN2CCOCC2)ccc2c3n(c(=NC(=O)c4cnc(N)nc4)nc12)CCN3 + CN1CCN(c2cc(C(=O)Nc3cc4cc(-c5cnn(C)c5)ccc4cn3)ccn2)CC1
[reply] 2.94

====

Tested on: 156681-154-R-J1-PDC complex spheroid viability
Assay: Anticancer human tumor 156681-154-R-J1-PDC cell line growth inhibition [CLK]; active means viability on the fitted dose curve at most 10% of control; inactive means the rest;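 note: spheroids exposed to the agents for seven days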
Settings: second compound 1 µM; first compound 0.0316 µM
A correct response names exactly one class from active, inactive

A selection of reference data follows.
CC(CO)NC(=O)c1cc(-c2ccc(Cl)cc2)nn(-c2cnn(C)c2)c1=O (stereo not drawn) + CNC(=O)c1ccc(Nc2nc(OC3CCCC3)c3c(-c4ccc5nc(C)oc5c4)c[nH]c3n2)c(OC)c1 = inactive
COc1cccc2c1C(=O)c1c(O)c3c(c(O)c1C2=O)CC(O)(C(=O)CO)CC3OC1CC(N)C(O)C(C)O1 (stereo not drawn) + CN1CCN(c2cc(C(=O)Nc3cc4cc(-c5cnn(C)c5)ccc4cn3)ccn2)CC1 = active

[ask] Test call for this compound, please: COc1ccc([C@@H](O)c2cc(-c3ncnc4cc(N5CCOCC5)ccc34)c(F)cc2Cl)nn1 + CN1CCN(c2cc(C(=O)Nc3cc4cc(-c5cnn(C)c5)ccc4cn3)ccn2)CC1
[reply] active

====

Tested on: 156681-154-R-J1-PDC complex spheroid viability
Experiment: Anticancer human tumor 156681-154-R-J1-PDC cell line growth inhibition [CLK];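 note: spheroids exposed to the agents for seven days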;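 for viability, T/C: 100% = DMSO vehicle control viability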
Settings: second compound 10 µM; first compound 1 µM; stronger effect = lower value
Description: A high-throughput screen of multi-cell type tumor spheroids was designed to identify active combinations of […] and targeted small molecules. Complex spheroids include a stromal component modeled by human endothelial cells (HUVEC) and fibroblasts modeled by human mesenchymal stem cells (MSCs). […] Compounds. […] If the clinical Cmax for an agent had not been determined, the highest concentration tested was 10 microM. […]
assay_readout: viability, T/C (%)
// note: answer is a bare numeric in %

Answered examples (2):
CC(CO)NC(=O)c1cc(-c2ccc(Cl)cc2)nn(-c2cnn(C)c2)c1=O (stereo not drawn) + CNC(=O)c1ccc(Nc2nc(OC3CCCC3)c3c(-c4ccc5nc(C)oc5c4)c[nH]c3n2)c(OC)c1 = 35.6
O=C(c1cc(Cc2n[nH]c(=O)c3ccccc23)ccc1F)N1CCN(C(=O)C2CC2)CC1 + CN1CCN(c2cc(C(=O)Nc3cc4cc(-c5cnn(C)c5)ccc4cn3)ccn2)CC1 = 2.17

Switching to the query record.
[ask] Returns the measured viability, T/C for the input compound. Input: CC(Nc1ccc2c(c1)OCCn1cc(N3C(=O)OCC3C(F)F)nc1-2)C(N)=O (stereo not drawn) + CN1CCN(c2cc(C(=O)Nc3cc4cc(-c5cnn(C)c5)ccc4cn3)ccn2)CC1
[reply] 2.64
